Origin of measurements: patent US20250171560A1

Target: T1, C-terminal flag-tagged ACPP transmembrane protein expressed on 293T cells (pcDNA-ACPP-flag)
T1 sequence: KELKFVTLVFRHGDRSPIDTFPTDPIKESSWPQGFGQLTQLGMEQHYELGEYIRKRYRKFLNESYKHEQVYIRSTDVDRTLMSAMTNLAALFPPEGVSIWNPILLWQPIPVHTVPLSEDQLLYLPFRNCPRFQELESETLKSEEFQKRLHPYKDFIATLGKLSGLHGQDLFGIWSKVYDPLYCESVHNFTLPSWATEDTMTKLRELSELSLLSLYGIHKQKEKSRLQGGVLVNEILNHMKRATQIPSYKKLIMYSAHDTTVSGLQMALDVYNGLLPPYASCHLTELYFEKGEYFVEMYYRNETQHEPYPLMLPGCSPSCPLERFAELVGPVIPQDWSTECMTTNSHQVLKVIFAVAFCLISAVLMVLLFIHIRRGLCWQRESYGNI
Test: flow cytometry on 293T cells transfected with pcDNA-ACPP-flag, surface staining without permeabilisation, goat anti human-FITC secondary antibody
readoutKind: % of cells in the positive gate V1R (%)
Quick reminder: number only, in %, skip the unit.

Reported % of cells in the positive gate V1R for ACPP antibody S4C7 (human full antibody) (antibody, V domains shown) VH: QMLVQSGAEVKRPGSSVTVSCETSGDTFSRYAISWLRQAPGQGLEWLGWISGNSGRADYAQNFQGRVTMTTDRSTSTAYLNLRSLRSDDTAVYYCARDAPMLFGVRGGGYYFGMDVWGQGTTVTVSS VL: EIVLTQSASSLSASVGDRVTITCRTSQNIYRYLNWYQQKPGKAPKLLIFGASTLQTGVPSRFSGSGSGTDFTLTITGLQPEDLATYYCQHSFKLPFTFGQGTRLEIK : what is it?
0.1
